# test system: UniProt A0A144A2H0
# Sequence (whole entry): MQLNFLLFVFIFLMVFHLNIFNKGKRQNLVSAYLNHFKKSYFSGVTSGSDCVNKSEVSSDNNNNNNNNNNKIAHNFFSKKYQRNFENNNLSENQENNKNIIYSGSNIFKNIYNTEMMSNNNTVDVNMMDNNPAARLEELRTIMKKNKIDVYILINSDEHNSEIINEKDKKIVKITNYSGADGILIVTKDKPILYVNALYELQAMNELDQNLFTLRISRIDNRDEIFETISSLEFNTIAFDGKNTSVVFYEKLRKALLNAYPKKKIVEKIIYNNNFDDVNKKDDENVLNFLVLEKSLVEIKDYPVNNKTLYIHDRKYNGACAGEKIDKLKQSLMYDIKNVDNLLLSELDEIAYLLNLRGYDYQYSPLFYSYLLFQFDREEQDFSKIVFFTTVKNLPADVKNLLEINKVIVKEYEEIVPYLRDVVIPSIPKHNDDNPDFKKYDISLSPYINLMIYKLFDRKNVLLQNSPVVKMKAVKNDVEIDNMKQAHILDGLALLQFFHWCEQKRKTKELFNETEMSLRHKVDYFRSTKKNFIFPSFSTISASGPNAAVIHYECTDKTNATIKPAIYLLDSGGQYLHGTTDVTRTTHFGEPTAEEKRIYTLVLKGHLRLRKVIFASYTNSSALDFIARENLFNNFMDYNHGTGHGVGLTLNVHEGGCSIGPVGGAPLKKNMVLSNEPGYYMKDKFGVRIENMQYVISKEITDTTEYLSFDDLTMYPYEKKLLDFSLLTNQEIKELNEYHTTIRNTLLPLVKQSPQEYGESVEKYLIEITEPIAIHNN
# test details: IC50 for competition of protein binding to Kinobeads;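 further: native unpurified kinases from lysate captured on beads bearing immobilized kinase inhibitors, with bead-bound kinases quantified by mass spectrometry across compound doses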
# condition description: assay detail: Kinobeads competition in P. falciparum blood-stage lysate
pIC50: −log10 of the molar value.
readout type: pIC50

# pIC50 (molecule: O=c1[nH]c2ccc(Cl)cc2c(NC2CN3CCC2CC3)c1-c1nc2ccccc2[nH]1 (stereo unspecified) [CHIR-124] ) is < 4.70
